Assay: Inhibition of binding to fibrinogen receptor
measurement-type: Log IC50

[P] N=C(N)c1ccc(OCCCCC(=O)NC(CC(=O)O)C(=O)NC(CO)C(=O)O)cc1 (stereo not drawn)
[Q] CC(C)[C@H](NC(=O)[C@H](CC(=O)O)NC(=O)CCCOc1ccc(C(=N)N)cc1)C(=O)N1CCS(=O)(=O)CC1
Request: Decide: P or Q , by lowest recorded Log IC50. In your reply, give the label of the chosen option.
Result: Q

---

Experiment: Inhibition of binding to fibrinogen receptor
measurement-type: Log IC50

>>> recorded_value("CC(C)[C@H](NC(=O)[C@H](CC(=O)O)NC(=O)CCCOc1ccc(C(=N)N)cc1)C(N)=O")
-6.2
>>> recorded_value("CC(C)C(NC(=O)C(CC(=O)O)NC(=O)CCCCOc1ccc(C(=N)N)cc1)C(=O)O (stereo unspecified)")
-6.64
>>> recorded_value("N=C(N)c1ccc(OCCCC(=O)NC(CC(=O)O)C(=O)NC(Cc2ccc(O)cc2)C(=O)O)cc1 (stereo unspecified)")
-6.8
>>> recorded_value("CC(C)C(C)NC(=O)C(CC(=O)O)NC(=O)CCCOc1ccc(C(=N)N)cc1 (stereo unspecified)")
-5.9
>>> recorded_value("CC(C)(C)CC(NC(=O)C(CC(=O)O)NC(=O)CCCOc1ccc(C(=N)N)cc1)C(=O)O (stereo unspecified)")
-6.64
>>> recorded_value("CC(C)C(NC(=O)C(CC(=O)O)NC(=O)CCCOc1ccc(C(=N)N)cc1)C(=O)O (stereo unspecified)")
-6.96
